ASSAY TARGET: Cytochrome P450 1A2 (Homo sapiens, UniProt P05177)
Sequence (P05177 whole entry): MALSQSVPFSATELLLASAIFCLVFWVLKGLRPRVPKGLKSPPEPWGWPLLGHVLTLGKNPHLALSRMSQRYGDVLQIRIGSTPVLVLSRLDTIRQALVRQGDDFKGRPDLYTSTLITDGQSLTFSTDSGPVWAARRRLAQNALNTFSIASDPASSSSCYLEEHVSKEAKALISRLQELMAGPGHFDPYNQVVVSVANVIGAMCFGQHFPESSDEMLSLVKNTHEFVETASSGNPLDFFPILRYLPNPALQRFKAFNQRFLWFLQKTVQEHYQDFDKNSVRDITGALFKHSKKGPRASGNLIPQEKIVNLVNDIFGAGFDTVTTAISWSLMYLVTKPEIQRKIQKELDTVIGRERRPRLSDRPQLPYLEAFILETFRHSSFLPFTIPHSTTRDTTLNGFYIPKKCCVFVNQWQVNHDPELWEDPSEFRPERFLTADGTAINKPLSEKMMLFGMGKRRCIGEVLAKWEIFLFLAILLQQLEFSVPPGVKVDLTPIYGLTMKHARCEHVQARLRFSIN

TEST SMILES	UNITS	IC50
CS(=O)(=O)O.[2H]C([2H])=CC(=O)Nc1cc(Nc2nccc(-c3cn(C([2H])([2H])[2H])c4ccccc34)n2)c(OC)cc1N(C)CCN(C)C	µM	39.8

###

ASSAY OVERVIEW: Cmax in Sprague-Dawley rat at 2 mg/kg, iv administered as single dose and measured upto 24 hrs by LC-MS/MS analysis
Assay type: ADME, organism-based
Design: route intravenous, dose 2 mg/kg, time <=24
CONDITION DESCRIPTION: in vivo
METRIC: Cmax (nM)

TEST SMILES	QUANTITATIVE READOUT
CS(=O)(=O)O.[2H]C([2H])=CC(=O)Nc1cc(Nc2nccc(-c3cn(C([2H])([2H])[2H])c4ccccc34)n2)c(OC)cc1N(C)CCN(C)C	277

###

ASSAY OVERVIEW: Half life in Sprague-Dawley rat liver microsomes preincubated for 10 mins under shaking condition followed by NADPH generating system addition and measured up to 20 mins by LC-MS/MS analysis

TEST SMILES	half-life at 20 min
CS(=O)(=O)O.[2H]C([2H])=CC(=O)Nc1cc(Nc2nccc(-c3cn(C([2H])([2H])[2H])c4ccccc34)n2)c(OC)cc1N(C)CCN(C)C	34.6 min
C=CC(=O)Nc1cc(Nc2nccc(-c3cn(C)c4ccccc34)n2)c(OC)cc1N(C)CCN(C)C	36.8 min

###

ASSAY TARGET: Cytochrome P450 2C8 (Homo sapiens, UniProt P10632)
Sequence (P10632 whole entry): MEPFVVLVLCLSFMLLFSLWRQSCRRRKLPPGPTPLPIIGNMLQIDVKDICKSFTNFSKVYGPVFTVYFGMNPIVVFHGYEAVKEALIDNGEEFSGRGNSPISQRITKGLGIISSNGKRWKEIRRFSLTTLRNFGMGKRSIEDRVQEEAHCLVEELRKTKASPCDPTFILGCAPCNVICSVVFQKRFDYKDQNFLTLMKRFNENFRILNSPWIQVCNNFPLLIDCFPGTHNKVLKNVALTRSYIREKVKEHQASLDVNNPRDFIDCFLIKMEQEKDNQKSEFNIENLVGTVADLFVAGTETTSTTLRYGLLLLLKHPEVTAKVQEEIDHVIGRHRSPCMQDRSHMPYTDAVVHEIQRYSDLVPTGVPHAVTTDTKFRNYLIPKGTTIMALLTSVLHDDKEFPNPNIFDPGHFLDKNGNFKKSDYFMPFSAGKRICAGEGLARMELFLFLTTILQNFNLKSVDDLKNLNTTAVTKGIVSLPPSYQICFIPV

TEST SMILES	ASSAY TARGET	IC50, µM
CS(=O)(=O)O.[2H]C([2H])=CC(=O)Nc1cc(Nc2nccc(-c3cn(C([2H])([2H])[2H])c4ccccc34)n2)c(OC)cc1N(C)CCN(C)C	Cytochrome P450 2C8 (Homo sapiens, UniProt P10632)	29.3
